biological target: BuChE (Equus caballus, UniProt P81908); construct: BuChE (E.C. 3.1.1.8) (BR, 20 u/mg) from horse serum; experiment: BuChE inhibition, Ellman's method; settings: read-out: IC50 ± S.D BuChE
Sequence (P81908 whole entry): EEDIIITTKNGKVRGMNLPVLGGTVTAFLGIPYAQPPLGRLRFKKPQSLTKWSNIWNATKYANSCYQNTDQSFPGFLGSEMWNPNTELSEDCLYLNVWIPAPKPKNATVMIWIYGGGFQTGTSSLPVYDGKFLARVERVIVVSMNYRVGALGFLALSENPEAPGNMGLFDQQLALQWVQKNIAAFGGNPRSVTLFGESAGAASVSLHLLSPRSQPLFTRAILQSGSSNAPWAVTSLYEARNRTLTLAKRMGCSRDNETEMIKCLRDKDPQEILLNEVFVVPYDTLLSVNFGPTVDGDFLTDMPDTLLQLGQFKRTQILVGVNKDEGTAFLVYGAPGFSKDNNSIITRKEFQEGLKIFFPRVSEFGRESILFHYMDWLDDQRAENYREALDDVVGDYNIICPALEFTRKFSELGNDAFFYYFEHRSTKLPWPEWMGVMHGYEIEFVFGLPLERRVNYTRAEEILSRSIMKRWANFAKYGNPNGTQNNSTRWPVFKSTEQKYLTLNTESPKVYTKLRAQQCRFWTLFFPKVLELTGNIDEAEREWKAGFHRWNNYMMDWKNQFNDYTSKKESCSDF
Parameter class (string): assigned from measured IC50. Ranges: interval 1: < 10 µM; interval 2: ≥ 10 µM and < 60 µM; interval 3: ≥ 60 µM

Below are worked cases with known answers.
>>> print(df.to_string())
                                   compound  qualitative_label
0  Cn1c2ccccc2c2cc[n+](-c3ccc(O)cc3)cc21.[Br-] [Compound B16]         interval 3
1  Cn1c2ccccc2c2cc[n+](-c3ccc(Br)cc3)cc21.[Br-] [Compound B10]         interval 2
2  Cn1c2ccccc2c2cc[n+](-c3cccc(Cl)c3)cc21.[Br-] [Compound B6]         interval 2
3  C1=[N+](c2ccccc2)CCc2c1[nH]c1ccccc21.[Br-] [Compound A46]         interval 1
4  Cc1ccc(-[n+]2ccc3c4ccccc4n(C)c3c2)cc1.[Br-] [Compound B22]         interval 2

Attention now shifts to the item below.
Input: Categorize the following entry: Cn1c2ccccc2c2cc[n+](-c3ccc(I)cc3)cc21.[Br-] [Compound B13]
Output: interval 2

* * *

target: AChE (Musca domestica); experiment: biochemical; type: biochemical, fly; conditions: Estimated values based on the results in Table 1 (inhibition rate at 10 μM); read-out: IC50 AChE, estimated values
quantity-name: IC50

Use the examples below as a reference point.
>>> print(df.to_string())
                                   molecule  reading
0  Cn1c2c(c3ccccc31)CC[N+](c1cccc(I)c1)=C2.[Br-] [Compound A12]  > 10 µM
1  Cn1c2ccccc2c2cc[n+](-c3ccc(C#N)cc3)cc21.[Br-] [Compound B25]  > 10 µM
2  Cn1c2ccccc2c2cc[n+](-c3cccc(Br)c3)cc21.[Br-] [Compound B9]   ~10 µM
3  Cn1c2ccccc2c2cc[n+](-c3cccc(C(F)(F)F)c3)cc21.[Br-] [Compound B26]  > 10 µM

Lab note: next molecule to report on.
Input: Can you look up IC50 on AChE (Musca domestica) for Cn1c2ccccc2c2cc[n+](-c3ccccc3Br)cc21.[Br-] [Compound B8] ?
Output: > 10 µM

* * *

In what follows, each item is paired with its pKi for AChE (Musca domestica).
Entry type: numeric. Quantity: pKi, the -log10 of concentration in molar units.

                         compound_string     experimental_system  reading
0  Cc1ccc([N+]2=Cc3c(c4ccccc4n3C)CC2)cc1  AChE (Musca domestica)     6.32

Lab note: next molecule to report on.
Input: Which measured pKi value corresponds to `Cc1ccc(-[n+]2ccc3c4ccccc4n(C)c3c2)cc1.[Br-]` ?
Output: 7.37

* * *

target: UniProt Q7YWJ9; assay: biochemical; format: biochemical, fly; conditions: test concentration of the compound 10 μM
quantity-name: Inhibition rate (%)

Use the examples below as a reference point.
                            compound_string  experimental_system            reading
0  CCCCn1c2c(c3ccccc31)CC[N+](c1ccccc1)=C2.[Br-]       UniProt Q7YWJ9    53.9 ± 1.5 ef %
1  Cn1c2c(c3ccccc31)CC[N+](c1ccc(C#N)cc1)=C2.[Br-]       UniProt Q7YWJ9  15.6 ± 1.8 mnop %
2  Cn1c2ccccc2c2cc[n+](-c3cc(Cl)cc(Cl)c3)cc21.[Br-]       UniProt Q7YWJ9     18.9 ± 2.5 v %
3  Cn1c2ccccc2c2cc[n+](-c3c(F)cccc3F)cc21.[Br-]       UniProt Q7YWJ9    48.5 ± 3.1 pq %

Input: Can you look up Inhibition rate (%) on UniProt Q7YWJ9 for `Cc1ccccc1-[n+]1ccc2c3ccccc3n(C)c2c1.[Br-]` ?
Output: 59.6 ± 3.2 n %

Input: Can you look up Inhibition rate (%) on UniProt Q7YWJ9 for `COc1ccc2c(c1)c1cc[n+](-c3ccccc3)cc1n2C.[Br-]` ?
Output: 85.7 ± 2.5 ghi %

Input: Can you look up Inhibition rate (%) on UniProt Q7YWJ9 for `Cn1c2c(c3ccccc31)CC[N+](c1ccccc1F)=C2.[Br-]` ?
Output: 15.1 ± 2.8 mnop %

Input: Can you look up Inhibition rate (%) on UniProt Q7YWJ9 for `Cn1c2ccccc2c2cc[n+](-c3ccccc3Br)cc21.[Br-]` ?
Output: 32.1 ± 0.9 u %

Input: Can you look up Inhibition rate (%) on UniProt Q7YWJ9 for `Cc1cccc(-[n+]2ccc3c4ccccc4n(C)c3c2)c1.[Br-]` ?
Output: 72.4 ± 3.9 l %

* * *

tested on: mouse neuroblastoma N2a cells; assay: In vitro cytotoxicity, MTT assay; details: read-out: Cytotoxicity IC50, mouse neuroblastoma N2a cells; 48 h
quantity-name: IC50

Input: Can you look up IC50 on mouse neuroblastoma N2a cells for `Cc1ccc(-[n+]2ccc3c4ccccc4n(C)c3c2)cc1.[Br-]` ?
Output: 19.2 µM

Input: Can you look up IC50 on mouse neuroblastoma N2a cells for `Cn1c2ccccc2c2cc[n+](-c3ccc(Br)cc3Br)cc21.[Br-]` ?
Output: 10.6 µM

* * *

The molecules listed here are annotated with their log10 IC50.
target: UniProtKB Q7YWJ9; experiment: biochemical; type: biochemical, fly; settings: read-out: IC50 ± S.D AChE
Friendly reminder: values = log10 of IC50, unit µM.

Use the examples below as a reference point.
>>> print(df.to_string())
                                   molecule  experimental_system  quantity_name  reading
0  Cn1c2ccccc2c2cc[n+](-c3ccc(O)cc3)cc21.[Br-] [Compound B16]     UniProtKB Q7YWJ9     log10 IC50     0.18
1  COc1ccc([N+]2=Cc3c(c4ccccc4n3C)CC2)cc1.[Br-] [Compound A19]     UniProtKB Q7YWJ9     log10 IC50     0.47

Input: Which measured log10 IC50 value corresponds to Cn1c2c(c3ccccc31)CC[N+](c1ccc(F)cc1)=C2.[Br-] [Compound A4] ?
Output: 1.15

Input: Which measured log10 IC50 value corresponds to Cn1c2ccccc2c2cc[n+](-c3cccc(O)c3)cc21.[Br-] [Compound B15] ?
Output: 0.59

Input: Which measured log10 IC50 value corresponds to CCCCn1c2ccccc2c2cc[n+](-c3ccccc3)cc21.[Br-] [Compound B42, 9-Butyl-2-phenyl-β-carboline bromide] ?
Output: 0.46

Input: Which measured log10 IC50 value corresponds to C1=[N+](c2ccccc2)CCc2c1[nH]c1ccccc21.[Br-] [Compound A46] ?
Output: 1.26

Input: Which measured log10 IC50 value corresponds to COc1ccc2c(c1)c1cc[n+](-c3ccccc3)cc1n2C.[Br-] [Compound B34] ?
Output: -0.03

Input: Which measured log10 IC50 value corresponds to Br.c1ccc(-n2ccc3c4ccccc4nc-3c2)cc1 [Compound B46, 2-Phenyl-β-carboline bromide] ?
Output: 1.26

* * *

The molecules listed here are annotated with their SI: selectivity index, ratio IC50 (BuChE)/IC50 (AChE).
target: AChE (Musca domestica); assay: biochemical; type: biochemical, fly

>>> print(df.to_string())
                                   molecule  reading
0  Cn1c2ccccc2c2cc[n+](-c3ccc(C(F)(F)F)cc3)cc21.[Br-] [Compound B27]    111.3
1  COc1cccc(-[n+]2ccc3c4ccccc4n(C)c3c2)c1.[Br-] [Compound B18]     6.42

Input: Which measured SI: selectivity index, ratio IC50 (BuChE)/IC50 (AChE) value corresponds to Cc1ccc(-[n+]2ccc3c4ccccc4n(C)c3c2)cc1.[Br-] [Compound B22] ?
Output: 111.6

Input: Which measured SI: selectivity index, ratio IC50 (BuChE)/IC50 (AChE) value corresponds to Cn1c2ccccc2c2cc[n+](-c3ccc(O)cc3)cc21.[Br-] [Compound B16] ?
Output: 45.3

Input: Which measured SI: selectivity index, ratio IC50 (BuChE)/IC50 (AChE) value corresponds to Cn1c2ccccc2c2cc[n+](-c3ccccc3C#N)cc21.[Br-] [Compound B23] ?
Output: 44.4

* * *

target: AChE (Musca domestica, UniProt Q7YWJ9); test: biochemical; assay type: biochemical, fly; conditions: read-out: IC50 ± S.D AChE
Sequence (Q7YWJ9 81-659): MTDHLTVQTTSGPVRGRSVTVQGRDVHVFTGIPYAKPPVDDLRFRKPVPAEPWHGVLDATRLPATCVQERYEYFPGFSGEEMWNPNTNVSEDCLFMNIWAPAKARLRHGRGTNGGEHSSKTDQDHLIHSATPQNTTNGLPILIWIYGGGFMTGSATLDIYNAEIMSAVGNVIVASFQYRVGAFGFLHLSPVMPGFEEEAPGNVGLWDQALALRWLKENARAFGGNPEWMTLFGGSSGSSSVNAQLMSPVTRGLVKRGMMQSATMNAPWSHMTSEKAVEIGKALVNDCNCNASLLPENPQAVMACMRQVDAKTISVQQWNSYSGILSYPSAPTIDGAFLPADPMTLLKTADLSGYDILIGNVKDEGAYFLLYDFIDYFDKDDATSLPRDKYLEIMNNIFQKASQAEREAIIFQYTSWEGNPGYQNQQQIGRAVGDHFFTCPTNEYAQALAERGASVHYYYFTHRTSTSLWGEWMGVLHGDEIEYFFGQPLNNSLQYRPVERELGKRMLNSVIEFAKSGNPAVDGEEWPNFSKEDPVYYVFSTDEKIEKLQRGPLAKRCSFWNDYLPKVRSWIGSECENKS
The compounds listed here are annotated with their log10(IC50).
Friendly reminder: values = log10 of IC50, unit µM.

Use the examples below as a reference point.
                                   compound                     experimental_system  quantity_name  reading
0  Cn1c2ccccc2c2cc[n+](-c3ccc(C(F)(F)F)cc3)cc21.[Br-]  AChE (Musca domestica, UniProt Q7YWJ9)    log10(IC50)    -0.15
1  Cn1c2c(c3ccc(F)cc31)CC[N+](c1ccccc1)=C2.[Br-]  AChE (Musca domestica, UniProt Q7YWJ9)    log10(IC50)     0.68

Input: Which measured log10(IC50) value corresponds to `Cn1c2ccccc2c2cc[n+](-c3ccc(Cl)cc3Cl)cc21.[Br-]` ?
Output: -0.26

Input: Which measured log10(IC50) value corresponds to [Br-].c1ccc(Cn2c3ccccc3c3cc[n+](-c4ccccc4)cc32)cc1 [Compound B44, 9-Benzyl-2-phenyl-β-carboline bromide] ?
Output: 1.05

Input: Which measured log10(IC50) value corresponds to CCn1c2ccccc2c2cc[n+](-c3ccccc3)cc21.[Br-] [Compound B38, 9-Ethyl-2-phenyl-β-carboline bromide] ?
Output: -0.12
